Assignment: determine reported glycan array binding signal (z-score) for the given binders.
# SYSTEM_NAME: Neu5Ac(a2-3)Gal(b1-4)GlcNAc(b1-3)Gal(b1-4)[Fuc(a1-3)]GlcNAc
# EXPERIMENTAL_DETAILS: glycan array binding signal (z-score within array); higher = stronger binding
# ASSAY_CONDITIONS: glycan notation: IUPAC condensed, linker removed
The sample as a whole holds a higher share of the strongest signals than the screen did.
When you answer, write just the number.

Look at this binder and give its reported glycan array binding signal (z-score). BSR4 (Toxoplasma gondii), Q95NL6 (protein) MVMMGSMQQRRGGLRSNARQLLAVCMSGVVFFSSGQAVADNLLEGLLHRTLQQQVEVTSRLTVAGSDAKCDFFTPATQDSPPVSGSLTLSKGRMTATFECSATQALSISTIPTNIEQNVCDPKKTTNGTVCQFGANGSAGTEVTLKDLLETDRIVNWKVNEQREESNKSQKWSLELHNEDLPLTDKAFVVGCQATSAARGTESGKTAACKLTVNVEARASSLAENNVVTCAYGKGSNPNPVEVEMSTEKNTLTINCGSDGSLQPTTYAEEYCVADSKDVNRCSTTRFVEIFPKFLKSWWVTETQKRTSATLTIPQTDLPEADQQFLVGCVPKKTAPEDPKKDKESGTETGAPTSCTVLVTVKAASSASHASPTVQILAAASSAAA
0.289

Look at this binder and give its reported glycan array binding signal (z-score). Vd2LysM (Verticillium dahliae) (protein) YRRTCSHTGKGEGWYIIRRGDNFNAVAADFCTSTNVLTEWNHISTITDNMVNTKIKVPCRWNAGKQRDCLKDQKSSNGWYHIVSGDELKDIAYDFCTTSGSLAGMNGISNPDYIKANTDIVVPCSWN
-0.732
